System: Staphylococcus aureus
Procedure Details: Antibacterial activity against Staphylococcus aureus NCTC 8325-4 incubated for 16 to 24 hrs by broth microdilution method
Assay type: functional
Conditions: time 16-24 hrs
Note to self: MIC under 0.3 µg/mL means rule met, ties and anything higher get rule not met.

Look over these answered cases.
Molecule | Label Value
CN(C)c1cc(NC(=O)CNC(C)(C)C)c(O)c2c1C[C@H]1C[C@H]3[C@H](N(C)C)C(O)=C(C(N)=O)C(=O)[C@@]3(O)C(O)=C1C2=O | rule met
CCn1c(=O)c(C(=O)Nc2nnc(-c3ncccc3F)s2)c(O)c2ccccc21 | rule met
CN[C@H](CC(C)C)C(=O)N[C@H]1C(=O)N[C@@H](CC(N)=O)C(=O)N[C@H]2C(=O)N[C@H]3C(=O)N[C@H](C(=O)N[C@H](C(=O)O)c4cc(O)cc(O)c4-c4cc3ccc4O)[C@H](O)c3ccc(c(Cl)c3)Oc3cc2cc(c3O[C@@H]2O[C@H](CO)[C@@H](O)[C@H](O)[C@H]2O[C@H]2C[C@](C)(N)[C@H](O)[C@H](C)O2)Oc2ccc(cc2Cl)[C@H]1O | rule not met
CNC(C)[C@@H]1CC[C@@H](N)[C@@H](O[C@H]2[C@H](O)[C@@H](O[C@H]3OC[C@](C)(O)[C@H](NC)[C@H]3O)[C@H](N)C[C@@H]2N)O1.CN[C@@H]1[C@@H](O)[C@@H](O[C@@H]2[C@@H](O)[C@H](O[C@H]3O[C@H](C(C)N)CC[C@H]3N)[C@@H](N)C[C@H]2N)OC[C@]1(C)O.CN[C@@H]1[C@@H](O)[C@@H](O[C@@H]2[C@@H](O)[C@H](O[C@H]3O[C@H](CN)CC[C@H]3N)[C@@H](N)C[C@H]2N)OC[C@]1(C)O (some centres not stated) | rule not met
CCn1c(=O)c(C(=O)Nc2nnc(-c3cc(C)ccn3)s2)c(O)c2ccccc21 | rule met
CCn1c(=O)c(C(=O)Nc2nnc(-c3ccc(F)cn3)s2)c(O)c2ccccc21 | rule not met

## Task Given CCn1c(=O)c(C(=O)Nc2nnc(-c3ccc(C)cn3)s2)c(O)c2ccccc21 , is recorded MIC strictly lower than 0.3 µg/mL?
## Result rule met

----------
Tested on: Staphylococcus aureus
Procedure Details: Antibacterial activity against Staphylococcus aureus USA300 incubated for 16 to 24 hrs by broth microdilution method
Format: functional
Conditions: time 16-24 hrs
Measurement Kind: MIC (µg/mL)
Report only the number, with the unit µg/mL understood.

Past entries and their recorded results:
Molecule | MIC / µg/mL
CCn1c(=O)c(C(=O)Nc2nnc(-c3ccc(Br)cn3)s2)c(O)c2ccccc21 | 0.06
CNC(C)[C@@H]1CC[C@@H](N)[C@@H](O[C@H]2[C@H](O)[C@@H](O[C@H]3OC[C@](C)(O)[C@H](NC)[C@H]3O)[C@H](N)C[C@@H]2N)O1.CN[C@@H]1[C@@H](O)[C@@H](O[C@@H]2[C@@H](O)[C@H](O[C@H]3O[C@H](C(C)N)CC[C@H]3N)[C@@H](N)C[C@H]2N)OC[C@]1(C)O.CN[C@@H]1[C@@H](O)[C@@H](O[C@@H]2[C@@H](O)[C@H](O[C@H]3O[C@H](CN)CC[C@H]3N)[C@@H](N)C[C@H]2N)OC[C@]1(C)O (some centres undefined) | 4

## Task Reported MIC for Staphylococcus aureus, given CCn1c(=O)c(C(=O)Nc2nnc(-c3cc(C)ccn3)s2)c(O)c2ccccc21 ?
## Result 0.14

## Task Also CCn1c(=O)c(C(=O)Nc2nnc(-c3cccc(C)n3)s2)c(O)c2ccccc21 ?
## Result 0.17
